Hi there, I'd appreciate the recorded hypochromic effect for every entry that follows.
assay: Time-dependent UV-vis solution stability in DMSO; assay type: physicochemical; conditions: 0 min to 48 h, room temperature

Retrieve hypochromic effect measured for NC(=NN=Cc1ccc([N+](=O)[O-])cc1)c1cccc(Cl)n1.NC(=NN=Cc1ccc([N+](=O)[O-])cc1)c1cccc(Cl)n1.[Cd+2].[Cl-].[Cl-] [Complex 7, Cd (L2)2Cl2] and print it.
27.7%

Indicate the recorded hypochromic effect value for this compound: NC(=NN=Cc1ccccc1)c1cc(Cl)ccn1.O=[N+]([O-])[O-].[Ag+] [Complex 3, AgL3NO3]
2.31%

Give me measured hypochromic effect, please, for this compound: NC(=NN=Cc1ccccc1)c1cncc(Cl)n1.O.O=[N+]([O-])[O-].[Ag+] [Complex 1, AgL1NO3 × H2O]
0.84%

# return recorded hypochromic effect for entry NC(=NN=Cc1ccccc1)c1cc(Cl)ccn1.[Cd+2].[Cl-].[Cl-] [Complex 8, CdL3Cl2]
36.3%

----------
tested on: glioblastoma LN-229 cells; assay: MTT cell viability assay; type: cell-based, human; conditions: Homo sapiens, 48 hours of incubation
pIC50: −log10 of the molar value.
Answer each item with its documented pIC50.

Return pIC50 for the following compound: NC(=NN=Cc1ccccc1)c1cncc(Cl)n1 [Complex L1]
< 4.30

Read off the recorded pIC50 for NC(=NN=Cc1ccccc1)c1cc(Cl)ccn1 [Complex L3]
< 4.30

Read the entry N/C(=N\N=C\c1ccccc1)c1cncc(N2CCOCC2)n1 [Complex L5] and write its reported pIC50.
< 4.30

Report pIC50 for N/C(=N\N=C\c1ccc([N+](=O)[O-])cc1)c1cccc(N2CCCC2)n1 [Complex L4]
4.32

Give pIC50 for N/C(=N\N=C\c1ccc([N+](=O)[O-])cc1)c1cccc(Cl)n1 [Complex L2]
4.39

Entry N/C(=N\N=C\c1ccccc1)c1cncc(N2CCCC2)n1 [Complex L6] needs its pIC50 filled in; supply it.
< 4.30

----------
For each entry below, report its Inhibition zone value.
tested on: S. Typhimurium ATCC 14028; assay: Diffusion-well method, inhibition zones; type: cell-based, Salmonella typhimurium; conditions: 500 µg/mL, wells 10 mm
Answer in mm, number only, no unit symbol.

Give recorded Inhibition zone. NC(=NN=Cc1ccccc1)c1cncc(N2CCOCC2)n1.O.O=[N+]([O-])[O-].[Ag+] [Complex 5, AgL5NO3 × H2O]
17

Identify Inhibition zone associated with the compound NC(=NN=Cc1ccccc1)c1cncc(Cl)n1.O.O=[N+]([O-])[O-].[Ag+] [Complex 1, AgL1NO3 × H2O]
17

Tell me Inhibition zone reported for NC(=NN=Cc1ccc([N+](=O)[O-])cc1)c1cccc(Cl)n1.O=[N+]([O-])[O-].[Ag+] [Complex 2, AgL2NO3]
19

Specify measured Inhibition zone for NC(=NN=Cc1ccc([N+](=O)[O-])cc1)c1cccc(N2CCCC2)n1.NC(=NN=Cc1ccc([N+](=O)[O-])cc1)c1cccc(N2CCCC2)n1.O=[N+]([O-])[O-].[Ag+] [Complex 4, AgL4NO3] .
17

----------
tested on: Staphylococcus aureus ATCC 25923; experiment: MIC determination; assay type: cell-based; settings: S. aureus ATCC 25923; 18 h
PROPERTY_LABEL: MIC (µg/mL)
Answer with a number only, understood to be in µg/mL.

Please respond with reported MIC (system Staphylococcus aureus ATCC 25923) for NC(=NN=Cc1ccccc1)c1cncc(N2CCOCC2)n1.O.O=[N+]([O-])[O-].[Ag+] .
50

Tell me MIC of NC(=NN=Cc1ccccc1)c1cc(Cl)ccn1.[Cd+2].[Cl-].[Cl-] when tested on Staphylococcus aureus ATCC 25923.
100

Answer briefly: MIC recorded on Staphylococcus aureus ATCC 25923 for NC(=NN=Cc1ccccc1)c1cc(Cl)ccn1.O=[N+]([O-])[O-].[Ag+]
100

Answer briefly: MIC recorded on Staphylococcus aureus ATCC 25923 for NC(=NN=Cc1ccc([N+](=O)[O-])cc1)c1cccc(Cl)n1.NC(=NN=Cc1ccc([N+](=O)[O-])cc1)c1cccc(Cl)n1.[Cd+2].[Cl-].[Cl-]
100

Fill: MIC (Staphylococcus aureus ATCC 25923) for this compound NC(=NN=Cc1ccc([N+](=O)[O-])cc1)c1cccc(N2CCCC2)n1.[Cd+2].[Cl-].[Cl-]
10

Give MIC for this entry on Staphylococcus aureus ATCC 25923: NC(=NN=Cc1ccc([N+](=O)[O-])cc1)c1cccc(Cl)n1.O=[N+]([O-])[O-].[Ag+]
50
